Biological target: human APJ receptor (Homo sapiens)
Construct: expressed in transfected cells; host or cells: HEK293
Sequence (P35414 whole entry): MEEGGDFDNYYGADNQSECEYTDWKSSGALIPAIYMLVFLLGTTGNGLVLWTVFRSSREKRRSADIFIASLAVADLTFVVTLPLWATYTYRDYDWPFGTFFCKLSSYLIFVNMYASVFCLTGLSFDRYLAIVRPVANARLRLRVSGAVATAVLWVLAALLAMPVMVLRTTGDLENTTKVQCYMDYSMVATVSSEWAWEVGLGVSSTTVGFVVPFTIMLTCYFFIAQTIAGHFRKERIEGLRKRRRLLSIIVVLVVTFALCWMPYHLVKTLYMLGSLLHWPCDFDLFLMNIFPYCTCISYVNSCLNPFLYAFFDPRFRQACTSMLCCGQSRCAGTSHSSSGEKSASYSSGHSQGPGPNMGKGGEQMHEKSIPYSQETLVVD
Assay: Intracellular cAMP accumulation assay (APJ hcAMP, HTRF)
Assay type: cell-based
Conditions: HEK293 cells stably expressing human APJ receptor; inhibition of forskolin-mediated cAMP production; read-out: APJ cAMP Potency range
pEC50: −log10 of the molar value.
I'd be grateful if you could share measured pEC50 for these entries.

smiles.code: CCCCc1nc(=O)c(Cc2cccc(-c3ccncc3C)c2)c(O)n1[C@@H](CC)c1cc(F)cc(F)c1
observation.type: pEC50
observed.measurement: 7.00 to 8.00

Answer for every listed entry: what is its pEC50? The entries follow.
1. CCc1cccc(CC)c1-n1c(-c2ccn(C3CC3)n2)nc(=O)c(Cc2ccc(-c3ccc(F)cc3C(N)=O)c(F)c2)c1O
2. CC[C@@H](c1cc(F)cc(F)c1)n1c(CCC2CC2)nc(=O)c(Cc2ccc(-c3ccc(F)nc3C)cc2)c1O
3. COc1cccc(OC)c1-n1c(CCC2CC2)nc(O)c(Cc2ccc(-n3cc(C)ccc3=O)cc2)c1=O
4. CCOCc1nc(=O)c(Cc2ccc(-c3ccnc(F)c3C)cc2)c(O)n1[C@@H](COC)c1cc(F)cc(F)c1

1: 8.00 to 11.00; 2: 8.00 to 11.00; 3: 8.00 to 11.00; 4: 8.00 to 11.00

Where do these numbers come from? They come from patent US11390616B2.
